In this section, each of the molecules is paired with its reported POD vs vehicle.
# System: 1434 (donor line of iPSC-derived cardiomyocytes)
# assay.text: POD (EC10) for decrease in total cell number (cytotoxicity) vs vehicle; higher = less potent (higher point of departure)
# particulars: exposure time: 90 min

molecule O=C(O)C(F)(F)C(F)(F)C(F)(F)OC(F)(F)F , POD vs vehicle observed: > 100 µM

Record O=S(=O)(O)C(F)(F)C(F)(F)C(F)(F)C(F)(F)C(F)(F)C(F)(F)F . Reported POD vs vehicle: > 100 µM

response.value for O=C(O)C(F)(F)C(F)(F)C(F)(F)OC(F)(C(F)(F)F)C(F)(F)F (field: POD vs vehicle) = > 100 µM

Please fill in: POD vs vehicle reported for O=C(CC(=O)C(F)(F)C(F)(F)F)C(F)(F)F = 21.9 µM

O=C(O)C(F)(F)C(F)(F)C(F)(F)C(F)(F)C(F)(F)F yielded POD vs vehicle of > 100 µM

Reported POD vs vehicle of O=S(=O)(O)CCC(F)(F)C(F)(F)C(F)(F)C(F)(F)F : > 100 µM

For O=C(O)C(F)(F)C(F)(F)C(F)F the molecule record lists POD vs vehicle as > 100 µM

The recorded POD vs vehicle for entry O=C(O)C(F)(F)OC(F)(F)C(F)(F)OC(F)(F)C(=O)O equals > 100 µM

The molecule listed as O=C([O-])C(F)(F)C(F)(F)C(F)(F)C(F)(F)C(F)(F)C(F)(F)C(F)(F)F.[NH4+] [Ammonium_perfluorooctanoate] has a reported POD vs vehicle of > 100 µM

Consider O=C(O)C=C(C(F)(F)F)C(F)(F)F . Its measured POD vs vehicle is > 100 µM

Record N=C(N)C(F)(F)C(F)(F)C(F)(F)C(F)(F)C(F)(F)C(F)(F)C(F)(F)F . Reported POD vs vehicle: > 100 µM

Quick note, POD vs vehicle for O=C(O)C(F)(F)OC(F)(F)C(F)(F)OC(F)(F)F landed at > 100 µM

Record NS(=O)(=O)C(F)(F)C(F)(F)C(F)(F)C(F)(F)C(F)(F)C(F)(F)F [Perfluorohexanesulfonamide] , field POD vs vehicle: 20.6 µM
